- Tested on: Rattus norvegicus
- protocol summary: Inhibition of d-amphetamine induced stereotypy in rats; i.p. treatment 1 hr before amphetamine.
- Type: functional
- study conditions: Rattus norvegicus, ip; read-out: ED50
recorded metric: log10 of ED50 (log10 of the value in mg/kg)
Could you please treat all values as log10 of ED50 in mg/kg?

Below are worked cases with known answers.
| molecule | log10 of ED50 |
| --- | --- |
| OC(CCCN1CCc2c(c3cc(F)ccc3n2-c2ccc(F)cc2)C1)c1ccc(F)cc1 (stereo not drawn) | -1.00 |
| OC(CCCN1CC[C@H]2[C@@H](C1)c1cc(F)ccc1N2c1ccc(F)cc1)c1ccc(F)cc1 (stereo partly drawn) | 1.34 |
| OCCCCN1CC[C@@H]2[C@@H](C1)c1cc(F)ccc1N2c1ccc(F)cc1 | -1.52 |

[in] Tell me measured log10 of ED50 for COc1ccc(C(O)CCCN2CC[C@@H]3[C@@H](C2)c2cc(F)ccc2N3c2ccc(F)cc2)cc1 (stereo partly drawn) please.
[out] -0.44

[in] Tell me measured log10 of ED50 for OC(CCCN1CC[C@@H]2[C@@H](C1)c1cc(F)ccc1N2c1ccc(F)cc1)c1ccc(F)cc1 (stereo partly drawn) please.
[out] -0.39

* * *

- System: Rattus norvegicus
- protocol summary: Inhibition of d-amphetamine induced stereotypy in rats; i.p. treatment 1 hr before amphetamine.
- Format: functional
- study conditions: Rattus norvegicus, ip; read-out: ED50
recorded metric: ED50

Below are worked cases with known answers.
| compound | ED50 |
| --- | --- |
| c1ccc(CN2CC[C@H]3[C@@H](C2)c2ccccc2N3c2ccccc2)cc1 | > 32 mg/kg |
| CN1CC[C@H]2[C@@H](C1)c1ccccc1N2c1ccccc1 | > 32 mg/kg |
| OC(CCCN1CC[C@@H]2[C@@H](C1)c1ccccc1N2c1ccc(F)cc1)c1ccc(F)cc1 (stereo partly drawn) | ~0.32 mg/kg |
| CN1CC[C@@H]2Nc3ccccc3[C@@H]2C1 | > 32 mg/kg |
| COc1ccc(/C=C/CCN2CC[C@@H]3[C@@H](C2)c2cc(F)ccc2N3c2ccc(F)cc2)cc1 | > 3.2 mg/kg |
| c1ccc(N2c3ccccc3[C@@H]3CNCC[C@@H]32)cc1 | > 32 mg/kg |
| Fc1ccc(N2c3ccc(F)cc3[C@@H]3CNCC[C@H]32)cc1 | > 3.2 mg/kg |
| Fc1ccc(/C=C/CCN2CC[C@@H]3[C@@H](C2)c2cc(F)ccc2N3c2ccc(F)cc2)cc1 | > 1 mg/kg |
| O=C(CCCN1CC[C@@H]2[C@@H](C1)c1cc(F)ccc1N2c1ccc(F)cc1)c1ccc(F)cc1 | > 1 mg/kg |
| OC(CCCN1CC[C@@H]2[C@@H](C1)c1cc(F)ccc1N2c1ccc(F)cc1)c1ccccc1 (stereo partly drawn) | 0.18 mg/kg |

[in] State measured ED50 of the compound `CCN1CC[C@@H]2[C@@H](C1)c1cc(F)ccc1N2c1ccc(F)cc1` with Rattus norvegicus.
[out] 0.14 mg/kg

[in] State measured ED50 of the compound `CN1CC[C@@H]2[C@@H](C1)c1cc(F)ccc1N2c1ccc(F)cc1` with Rattus norvegicus.
[out] 0.14 mg/kg

[in] State measured ED50 of the compound OC(CCCN1CC[C@H]2[C@@H](C1)c1ccccc1N2c1ccccc1)c1ccc(F)cc1 (stereo partly drawn) with Rattus norvegicus.
[out] > 32 mg/kg
